Test system: Erythrocyte
Test: Hemolytic activity in human erythrocytes at 10 ug/ml incubated for 1 hr by absorbance based analysis
Format: toxicity, cell-based
Conditions: dose 10 µg/ml
Where a SMILES comes first, the peptide text is derived from it. [ ]: non-standard residue; d: D form. Aib = CC(C)(N)C(=O)O
quantityMeasured: Activity

[[record]]
compound = "CC[C@H](C)[C@H](NC(=O)[C@H](CC(N)=O)NC(=O)C(C)(C)NC(C)=O)C(=O)N[C@@H](CC(C)C)C(=O)NC(C)(C)C(=O)N1CCC[C@H]1C(=O)N[C@@H](CC(C)C)C(=O)N[C@@H](CC(C)C)C(=O)NC(C)(C)C(=O)N1CCC[C@H]1C(=O)N[C@@H](CC(C)C)C(=O)O (Ac-[Aib]NIL[Aib]PLL[Aib]PL-OH)"
measuredvalue = "Non-Toxic"

[[record]]
compound = "CC[C@H](C)[C@H](NC(=O)[C@@H]1CCCN1C(=O)C(C)(C)NC(=O)[C@@H](NC(=O)[C@@H](NC(=O)[C@@H]1CCCN1C(=O)C(C)(C)NC(=O)[C@@H](NC(=O)[C@H](CC(C)C)NC(=O)[C@H](CC(N)=O)NC(=O)C(C)(C)NC(C)=O)[C@@H](C)CC)[C@@H](C)CC)[C@@H](C)CC)C(=O)O (Ac-[Aib]NLI[Aib]PII[Aib]PI-OH)"
measuredvalue = "Non-Toxic"

[[record]]
compound = "CC[C@H](C)[C@H](NC(=O)[C@H](CC(C)C)NC(=O)[C@@H]1CCCN1C(=O)C(C)(C)NC(=O)[C@H](CC(C)C)NC(=O)[C@H](CC(C)C)NC(=O)[C@H](CC(N)=O)NC(=O)C(C)(C)NC(C)=O)C(=O)NC(C)(C)C(=O)N1CCC[C@H]1C(=O)N[C@@H](CC(C)C)C(=O)O (Ac-[Aib]NLL[Aib]PLI[Aib]PL-OH)"
measuredvalue = "Non-Toxic"


* * *

System: Erythrocyte
Experiment: Hemolytic activity in human erythrocytes at 10 ug/ml incubated for 1 hr by absorbance based analysis
Assay type: toxicity, cell-based
Conditions: dose 10 µg/ml
Where a SMILES comes first, the peptide text is derived from it. [ ]: non-standard residue; d: D form. Aib = CC(C)(N)C(=O)O
quantityMeasured: Activity

[[record]]
compound = "CC[C@H](C)[C@H](NC(=O)[C@@H]1CCCN1C(=O)C(C)(C)NC(=O)[C@H](CC(C)C)NC(=O)[C@H](CC(C)C)NC(=O)[C@@H]1CCCN1C(=O)C(C)(C)NC(=O)[C@H](CC(C)C)NC(=O)[C@H](CC(C)C)NC(=O)[C@H](CC(N)=O)NC(=O)C(C)(C)NC(C)=O)C(=O)O (Ac-[Aib]NLL[Aib]PLL[Aib]PI-OH)"
measurementtarget = "Erythrocyte"
measuredvalue = "Non-Toxic"

[[record]]
compound = "CC(=O)NC(C)(C)C(=O)N[C@@H](CC(N)=O)C(=O)N[C@@H](CC(C)C)C(=O)N[C@@H](CC(C)C)C(=O)NC(C)(C)C(=O)N1CCC[C@H]1C(=O)N[C@@H](CC(C)C)C(=O)N[C@@H](CC(C)C)C(=O)NC(C)(C)C(=O)N1CCC[C@H]1C(=O)N[C@@H](CC(C)C)C(=O)O (Ac-[Aib]NLL[Aib]PLL[Aib]PL-OH)"
measurementtarget = "Erythrocyte"
measuredvalue = "Non-Toxic"

[[record]]
compound = "CC[C@H](C)[C@H](NC(=O)[C@H](CC(N)=O)NC(=O)C(C)(C)NC(C)=O)C(=O)N[C@H](C(=O)NC(C)(C)C(=O)N1CCC[C@H]1C(=O)N[C@@H](CC(C)C)C(=O)N[C@@H](CC(C)C)C(=O)NC(C)(C)C(=O)N1CCC[C@H]1C(=O)N[C@@H](CC(C)C)C(=O)O)[C@@H](C)CC (Ac-[Aib]NII[Aib]PLL[Aib]PL-OH)"
measurementtarget = "Erythrocyte"
measuredvalue = "Non-Toxic"

